Assay system Alpha-2A adrenergic receptor (Homo sapiens, UniProt P08913); read-out recorded as AC50. Also: assay procedure not described here.

compound	AC50
CC(C)NC(=N)NC(=N)Nc1ccc(Cl)c(Cl)c1 [CHLORPROGUANIL]	5.59 µM
CC(C(=O)O)c1cccc(Oc2ccccc2)c1 (configuration not stated) [FENOPROFEN]	> 30 µM
C[C@H](N[C@@H](CCc1ccccc1)C(=O)O)C(=O)N1Cc2ccccc2C[C@H]1C(=O)O	> 30 µM
C[C@H]1CN(C[C@H](Cc2ccccc2)C(=O)NCC(=O)O)CC[C@@]1(C)c1cccc(O)c1 [ALVIMOPAN]	> 30 µM
CC(C)(C)NC(=O)N[C@H](C(=O)N1C[C@H]2[C@@H]([C@H]1C(=O)NC(CC1CCC1)C(=O)C(N)=O)C2(C)C)C(C)(C)C (some centres not stated) [BOCEPREVIR]	> 30 µM
Cc1cc2c(cc1S(N)(=O)=O)S(=O)(=O)CCC2	> 30 µM
Clc1ccc(C(Cn2ccnc2)OCc2csc3c(Cl)cccc23)c(Cl)c1 (configuration not stated) [SERTACONAZOLE]	3.8 µM
CC(O)(CS(=O)(=O)c1ccc(F)cc1)C(=O)Nc1ccc(C#N)c(C(F)(F)F)c1 (configuration not stated) [BICALUTAMIDE]	> 30 µM
CC(=O)OCC(=O)[C@@]1(O)CC[C@H]2[C@@H]3CCC4=CC(=O)CC[C@]4(C)[C@H]3[C@@H](O)C[C@@]21C [HYDROCORTISONE ACETATE]	> 30 µM
CC1(CCN2CCCCC2)C(=O)CCc2ccccc21 (configuration not stated) [NEPINALONE]	18.3 µM
CC[C@H]1OC(=O)[C@H](C)[C@@H](O[C@H]2C[C@@](C)(OC)[C@@H](O)[C@H](C)O2)[C@H](C)[C@@H](O[C@@H]2O[C@H](C)C[C@H](N(C)C)[C@H]2O)[C@](C)(O)C[C@@H](C)[C@@H]2N[C@@H](COCCOC)O[C@H]([C@H]2C)[C@]1(C)O [DIRITHROMYCIN]	> 30 µM
CCCn1cnc2c1c(=O)n(CCCCC(C)=O)c(=O)n2C [PROPENTOFYLLINE]	> 30 µM
C[N+](C)(C)CCOC(=O)CCC(=O)OCC[N+](C)(C)C [SUXAMETHONIUM]	16.6 µM
NC[C@H]1CC[C@H](C(=O)Oc2ccc(CCC(=O)O)cc2)CC1 [CETRAXATE]	> 30 µM
CC(COc1ccccc1)NC(C)C(O)c1ccc(O)cc1 (configuration not stated) [ISOXSUPRINE]	0.446 µM
C[N+](C)(CCCCCC[N+](C)(C)C1c2ccccc2-c2ccccc21)C1c2ccccc2-c2ccccc21 [HEXAFLUORENIUM]	2.19 µM
c1ccc2c(SC3=NCCN3)c[nH]c2c1 [TINAZOLINE]	0.0098 µM
CC[N+](C)(CC)CCOC(=O)C(O)(c1ccccc1)C1CCCCC1 (configuration not stated) [OXYPHENONIUM]	> 30 µM
CCN(CC)CCCC(C)Nc1c2ccc(Cl)cc2nc2ccc(OC)cc12 (configuration not stated) [QUINACRINE]	11.9 µM
C=C(C)CNc1ccc(C(C)C(=O)O)cc1 (configuration not stated) [ALMINOPROFEN]	> 30 µM
COc1ccc2[nH]c([S+]([O-])Cc3ncc(C)c(OC)c3C)nc2c1 (configuration not stated) [OMEPRAZOLE]	> 30 µM
O=C(O)CN(CCN(CC(=O)O)CC(=O)O)CCN(CC(=O)O)CC(=O)O [PENTETIC ACID]	1.32 µM
Cc1cc(C2CCCCC2)n(O)c(=O)c1 [CICLOPIROX]	> 30 µM
Cc1oc(=O)oc1COC(=O)[C@@H]1N2C(=O)[C@@H](NC(=O)[C@H](N)c3ccccc3)[C@H]2SC1(C)C [LENAMPICILLIN]	> 30 µM
C#C[C@]1(O)C=C[C@H]2[C@@H]3CCC4=CC(=O)CC[C@@H]4[C@H]3CC[C@@]21CC [GESTODENE]	> 30 µM
COC(=O)[C@H]1[C@H]2C[C@@H]3c4[nH]c5cc(OC)ccc5c4CCN3C[C@H]2C[C@@H](OC(=O)c2cc(OC)c(OC)c(OC)c2)[C@@H]1OC [RESERPINE]	> 30 µM
NC(=O)[C@@H]1CC[C@@H]2CN1C(=O)N2OS(=O)(=O)O [AVIBACTAM]	> 30 µM
CN[C@@H]1[C@H](O[C@H]2[C@H](O[C@H]3[C@H](O)[C@@H](O)[C@H](NC(=N)N)[C@@H](O)[C@@H]3NC(=N)N)O[C@@H](C)[C@]2(O)CO)O[C@@H](CO)[C@H](O)[C@H]1O [DIHYDROSTREPTOMYCIN]	> 30 µM
O=C(O)[C@@H]1C[C@@H](O)CN1	> 30 µM
CCC[C@H](N[C@@H](C)C(=O)N1[C@H](C(=O)O)C[C@@H]2CCCC[C@@H]21)C(=O)OCC [PERINDOPRIL]	> 30 µM
Cc1cc(=O)oc2cc(O)ccc12 [HYMECROMONE]	> 30 µM
O=S1(=O)CCN(CN2CCS(=O)(=O)NC2)CN1 [TAUROLIDINE]	> 30 µM

Ref: ChEMBL document CHEMBL5291721
